# Subject Of Test: Corticotropin-releasing factor receptor 2/Corticotropin-releasing factor-binding protein (Homo sapiens, UniProt P24387+Q13324)
# Sequence (Q13324 whole entry): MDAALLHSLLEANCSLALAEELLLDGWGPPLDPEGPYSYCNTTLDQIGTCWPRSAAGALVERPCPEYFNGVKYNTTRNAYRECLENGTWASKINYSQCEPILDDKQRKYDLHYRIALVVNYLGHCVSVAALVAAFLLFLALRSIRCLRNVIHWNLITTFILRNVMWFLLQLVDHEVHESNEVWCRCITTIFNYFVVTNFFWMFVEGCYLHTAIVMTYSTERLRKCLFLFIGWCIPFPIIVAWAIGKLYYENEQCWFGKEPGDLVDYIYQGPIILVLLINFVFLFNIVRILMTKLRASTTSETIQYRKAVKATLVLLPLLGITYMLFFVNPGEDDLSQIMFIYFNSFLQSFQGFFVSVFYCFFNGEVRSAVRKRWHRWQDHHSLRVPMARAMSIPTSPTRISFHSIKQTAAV
# Sequence (P24387 whole entry): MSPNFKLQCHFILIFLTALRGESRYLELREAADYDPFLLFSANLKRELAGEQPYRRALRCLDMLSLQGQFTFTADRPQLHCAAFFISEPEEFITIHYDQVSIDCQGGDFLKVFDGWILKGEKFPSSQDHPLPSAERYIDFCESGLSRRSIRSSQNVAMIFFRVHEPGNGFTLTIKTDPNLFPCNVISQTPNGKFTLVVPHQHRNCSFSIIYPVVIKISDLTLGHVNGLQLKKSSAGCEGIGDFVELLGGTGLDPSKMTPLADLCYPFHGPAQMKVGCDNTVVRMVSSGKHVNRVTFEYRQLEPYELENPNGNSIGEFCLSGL
# Test Name: Dose Response confirmation of uHTS hits for small molecule antagonists of the CRF-binding protein and CRF-R2 receptor complex.
# Format: functional
# Details: read-out: IC50_Mean
The source made the active and inactive calls. Cut-off read from the data, not from the text of the source: actives have a measured IC50 and inactives only a lower limit.
Your answer must be one of the following: Y (active), N (inactive)

Data request: Look up the recorded call for `O=C(c1ccccc1)c1nn(-c2ccc(Cl)cc2)cc1C(=O)c1cc2ccccc2oc1=O` in this test.
Data returned: N

Data request: Also `Cc1noc(NS(=O)(=O)c2ccc(N/C=C\C(=O)c3cccc4ccccc34)cc2)c1C` ?
Data returned: N

Data request: Same again, this time with COc1cc(OC)c2ccc(=O)oc2c1C(CCN1CCOCC1)c1ccc2c(c1)OCO2 (stereo not drawn)
Data returned: N

Data request: Same lookup for `CCc1noc(C)c1C(=O)N1CCS/C1=N\c1cccc(Cl)c1C` , please.
Data returned: Y

Data request: Input `COc1ccc(C(=O)Nn2c(SCC(=O)NC3CCCCC3)nc3ccccc3c2=O)cc1`
Data returned: Y

Data request: Now consider `COc1ccc(/C=C2\CCC/C(=C\c3ccc(OC)c(OC)c3OC)C2=O)c(OC)c1OC` and answer again.
Data returned: Y

Data request: // next record `COc1ccc(NC(=S)N2CCC(N(C)CCN3CCOCC3)CC2)cc1Cl`
Data returned: N

Data request: What do you have for CCCn1c(=N)n(CC(O)COc2ccc(C)cc2)c2ccccc21 (stereo not drawn) ?
Data returned: N
